Species on record: Rattus norvegicus
Test: Open TG-GATES - Regimen: Daily Repeat
Type: toxicity, organism-based, Sprague-Dawley
Parameters: regimen Daily Repeat, gender Male, age 6 weeks
Conditions: in vivo, po, 1000 mg/kg, 72 h, tissue Blood, route gavage, dose level High, time 3 day
The molecules listed here are annotated with their Plat.
Measured Parameter: Plat (x10_4/uL)

smi=CCOc1ccc(NC(C)=O)cc1 reported_value=131.8
smi=O=C(OC[C@H]1O[C@@H](OC(=O)c2cc(O)c(O)c(OC(=O)c3cc(O)c(O)c(O)c3)c2)[C@H](OC(=O)c2cc(O)c(O)c(OC(=O)c3cc(O)c(O)c(O)c3)c2)[C@@H](OC(=O)c2cc(O)c(O)c(OC(=O)c3cc(O)c(O)c(O)c3)c2)[C@@H]1OC(=O)c1cc(O)c(O)c(OC(=O)c2cc(O)c(O)c(O)c2)c1)c1cc(O)c(O)c(OC(=O)c2cc(O)c(O)c(O)c2)c1 reported_value=110.8
